Listed here: items and their measured IC50.
# Test system: Glycogen synthase kinase-3 beta (Homo sapiens, UniProt P49841)
# Sequence (P49841 whole entry): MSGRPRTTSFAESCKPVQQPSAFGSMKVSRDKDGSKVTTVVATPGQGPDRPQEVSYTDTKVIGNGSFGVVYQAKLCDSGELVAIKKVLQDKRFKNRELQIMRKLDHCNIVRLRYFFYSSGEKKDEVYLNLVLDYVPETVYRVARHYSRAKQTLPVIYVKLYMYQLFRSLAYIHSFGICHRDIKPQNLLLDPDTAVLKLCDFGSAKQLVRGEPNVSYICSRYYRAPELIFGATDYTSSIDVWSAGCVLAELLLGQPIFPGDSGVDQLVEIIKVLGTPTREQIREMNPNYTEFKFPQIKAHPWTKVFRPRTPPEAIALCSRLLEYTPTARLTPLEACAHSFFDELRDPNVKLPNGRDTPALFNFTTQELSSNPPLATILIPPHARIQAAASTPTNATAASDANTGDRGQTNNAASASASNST
# Method notes: Inhibition of recombinant human GSK-3beta using prephosphorylated GS-1 peptide as substrate after 1 hr in presence of [gamma-32P]ATP by liquid scintillation spectrometric method
// unit must come after the numeric part

Consider the following illustrative entries.
- Molecule: "Cn1c(N2CCNC(c3ccccc3Cl)C2)nc(-c2ccncc2)cc1=O (racemic)"
  Test system: "Glycogen synthase kinase-3 beta (Homo sapiens, UniProt P49841)"
  IC50: "9.6 nM"
- Molecule: "COc1cc(F)cc(F)c1C1CN(c2nc(-c3ccncc3)cc(=O)n2C)CCN1 (centres undefined)"
  Test system: "Glycogen synthase kinase-3 beta (Homo sapiens, UniProt P49841)"
  IC50: "2 nM"
- Molecule: "COc1cc(F)ccc1C1CN(c2nc(-c3ccncc3)cc(=O)n2C)CCN1 (single isomer, unassigned; enantiomer 2)"
  Test system: "Glycogen synthase kinase-3 beta (Homo sapiens, UniProt P49841)"
  IC50: "0.4 nM"

# get_value(readout= IC50, system= Glycogen synthase kinase-3 beta (Homo sapiens, UniProt P49841)) for Cn1c(N2CCNC(c3ccc(C#N)cc3)C2)nc(-c2ccncc2)cc1=O (racemic)
15 nM
